# System: NCI-H1563
# procedure-text: relative viability (nuclei count vs DMSO), 5 days (fraction); higher = more cells survive
# experimental-context: first compound 0.8 µM
readout-kind: relative viability
API doc: respond with a numeric literal and nothing else, no unit.

Before answering, review these 2 worked examples.
O=c1cc(-c2cccc3c2Sc2ccccc2S3)oc(N2CCOCC2)c1 + Cc1nc(Nc2ncc(C(=O)Nc3c(C)cccc3Cl)s2)cc(N2CCN(CCO)CC2)n1 [Dasatinib] (partner 0.075 µM)
0.437
COc1nc(C)cnc1NS(=O)(=O)c1cccnc1-c1ccc(-c2nnco2)cc1 [Zibotentan] + C[C@@H](Oc1cc(-c2cnn(C3CCNCC3)c2)cnc1N)c1c(Cl)ccc(F)c1Cl [Crizotinib] (partner 1 µM)
0.874

// query relative viability value for entry COc1nc(C)cnc1NS(=O)(=O)c1cccnc1-c1ccc(-c2nnco2)cc1 [Zibotentan] + Cc1nc(Nc2ncc(C(=O)Nc3c(C)cccc3Cl)s2)cc(N2CCN(CCO)CC2)n1 [Dasatinib] (partner 0.075 µM)
0.476

Quick one: O=c1cc(-c2cccc3c2Sc2ccccc2S3)oc(N2CCOCC2)c1 + C[C@]1(O)C[C@@H](c2nc(-c3ccc4ccc(-c5ccccc5)nc4c3)c3c(N)nccn32)C1 [Linsitinib] (partner 1 µM)
1.2
